# Test system: U2OS
# Assay Remarks: Multiplex assay against U2OS
# Type: toxicity, cell-based
# Measurement Parameters: human, 12 h, 10 µM, compound concentration 10 uM, replicate 1
Entry class follows Population Membrane Permeable-Phenotype (%): lower = under 10%, middle = from 10% up to 20%, upper = 20% and over

[[record]]
molecule = "COc1ccc(NS(=O)(=O)c2sc3ccc(Cl)cc3c2C)cc1N1CCNCC1.Cl"
class = "upper"

[[record]]
molecule = "CC(=O)c1cc(-c2cc(C(=O)NC3CC3)ccc2C)c2ncccn12"
class = "lower"

[[record]]
molecule = "CN(C)CCOc1ccc(-c2nc(-c3ccncc3)c(-c3ccc4c(c3)CC/C4=N\\O)[nH]2)cc1"
class = "middle"

[[record]]
molecule = "c1ccc2oc(-c3csc(C4CCN(Cc5nc6ncccc6[nH]5)CC4)n3)cc2c1"
class = "lower"

[[record]]
molecule = "Cc1cc2c(cc1N1C(=O)c3cccc4c(CCCO)ccc(c34)C1=O)n(C)c(=O)n2C"
class = "middle"

[[record]]
molecule = "COc1cc2c(NC3CCN(C(C)C)CC3)nc(N3CCC(F)(F)CC3)nc2cc1OCCCN1CCCC1"
class = "upper"

[[record]]
molecule = "CC(C)N1CCC(C)(C)c2cc(C#Cc3ccc(C(=O)O)cc3)ccc21"
class = "lower"

[[record]]
molecule = "CN(C)C/C=C/C(=O)Nc1cc2c(Nc3ccc(F)c(Cl)c3)ncnc2cc1O[C@H]1CCOC1.O=C(O)/C=C\\C(=O)O.O=C(O)/C=C\\C(=O)O [AFATINIB DIMALEATE]"
class = "upper"

[[record]]
molecule = "CC(C)(C)c1cnc(CSc2cnc(NC(=O)C3CCNCC3)s2)o1"
class = "upper"

[[record]]
molecule = "Cl.Cl.NC1(c2ccc(-c3nc4ccn5c(=O)[nH]nc5c4cc3-c3ccccc3)cc2)CCC1"
class = "upper"

[[record]]
molecule = "CCC(=O)O[C@]1(C(=O)SCF)[C@H](C)C[C@H]2[C@@H]3C[C@H](F)C4=CC(=O)C=C[C@]4(C)[C@@]3(F)[C@@H](O)C[C@@]21C [FLUTICASONE PROPIONATE]"
class = "upper"


* * *

Measured Population Healthy Nuclei (%), listed per entry.
# System: HEK-293T
# Assay Remarks: Multiplex assay against HEK293T
# Format: toxicity, cell-based
# Measurement Parameters: human, 12 h, 10 µM, compound concentration 10 uM, replicate 2
Recorded Endpoint: Population Healthy Nuclei (%)

[[record]]
compound = "Cc1cn(-c2cc(NC(=O)c3ccc4c(c3)CN(c3cncnc3)C[C@@H]4C)cc(C(F)(F)F)c2)cn1"
recorded_endpoint = "Population Healthy Nuclei (%)"
unit = "%"
recorded_measurement = 88

[[record]]
compound = "CC(C)N1CCC(C)(C)c2cc(C#Cc3ccc(C(=O)O)cc3)ccc21"
recorded_endpoint = "Population Healthy Nuclei (%)"
unit = "%"
recorded_measurement = 61

[[record]]
compound = "COc1cc2c(NC3CCN(C(C)C)CC3)nc(N3CCC(F)(F)CC3)nc2cc1OCCCN1CCCC1"
recorded_endpoint = "Population Healthy Nuclei (%)"
unit = "%"
recorded_measurement = 24

[[record]]
compound = "COc1cc2c(Nc3ccc(NC(=O)c4ccccc4)cc3)ncnc2cc1OCCCN1CCOCC1"
recorded_endpoint = "Population Healthy Nuclei (%)"
unit = "%"
recorded_measurement = 89

[[record]]
compound = "N#Cc1cnc(Nc2cc(NC[C@H]3CNCCO3)c(C(F)(F)F)cn2)cn1"
recorded_endpoint = "Population Healthy Nuclei (%)"
unit = "%"
recorded_measurement = 85

[[record]]
compound = "Cl.Cl.NC1(c2ccc(-c3nc4ccn5c(=O)[nH]nc5c4cc3-c3ccccc3)cc2)CCC1"
recorded_endpoint = "Population Healthy Nuclei (%)"
unit = "%"
recorded_measurement = 71

[[record]]
compound = "CN(C)C/C=C/C(=O)Nc1cc2c(Nc3ccc(F)c(Cl)c3)ncnc2cc1O[C@H]1CCOC1.O=C(O)/C=C\\C(=O)O.O=C(O)/C=C\\C(=O)O [AFATINIB DIMALEATE]"
recorded_endpoint = "Population Healthy Nuclei (%)"
unit = "%"
recorded_measurement = 53

[[record]]
compound = "CNC(=O)c1cc(Oc2ccc(NC(=O)Nc3cc(C(C)(C)C)nn3-c3ccc4ncccc4c3)c(F)c2)ccn1"
recorded_endpoint = "Population Healthy Nuclei (%)"
unit = "%"
recorded_measurement = 78

[[record]]
compound = "c1ccc2oc(-c3csc(C4CCN(Cc5nc6ncccc6[nH]5)CC4)n3)cc2c1"
recorded_endpoint = "Population Healthy Nuclei (%)"
unit = "%"
recorded_measurement = 86

[[record]]
compound = "CCOc1cc2ncc(C#N)c(Nc3ccc(OCc4cccc(F)c4)c(Cl)c3)c2cc1NC(=O)/C=C/CN(C)C"
recorded_endpoint = "Population Healthy Nuclei (%)"
unit = "%"
recorded_measurement = 83

[[record]]
compound = "CCOc1cc(N2CCC(O)CC2)ccc1Nc1ncc2c(n1)N(C1CCCC1)CCC(=O)N2C"
recorded_endpoint = "Population Healthy Nuclei (%)"
unit = "%"
recorded_measurement = 86

[[record]]
compound = "CCC(=O)O[C@]1(C(=O)SCF)[C@H](C)C[C@H]2[C@@H]3C[C@H](F)C4=CC(=O)C=C[C@]4(C)[C@@]3(F)[C@@H](O)C[C@@]21C [FLUTICASONE PROPIONATE]"
recorded_endpoint = "Population Healthy Nuclei (%)"
unit = "%"
recorded_measurement = 27

[[record]]
compound = "CC(C)(C)c1cnc(CSc2cnc(NC(=O)C3CCNCC3)s2)o1"
recorded_endpoint = "Population Healthy Nuclei (%)"
unit = "%"
recorded_measurement = 86

[[record]]
compound = "CC(=O)c1cc(-c2cc(C(=O)NC3CC3)ccc2C)c2ncccn12"
recorded_endpoint = "Population Healthy Nuclei (%)"
unit = "%"
recorded_measurement = 31

[[record]]
compound = "CCn1c(-c2nonc2N)nc2cnc(Oc3cccc(NC(=O)c4ccc(OCCN5CCOCC5)cc4)c3)cc21 [GSK-269962A]"
recorded_endpoint = "Population Healthy Nuclei (%)"
unit = "%"
recorded_measurement = 13

[[record]]
compound = "Cc1nc(Cc2cccc(C(F)(F)F)c2)sc1-c1ccc(C(N)=O)nc1 [TP-024n]"
recorded_endpoint = "Population Healthy Nuclei (%)"
unit = "%"
recorded_measurement = 25

[[record]]
compound = "COc1ccc(NS(=O)(=O)c2sc3ccc(Cl)cc3c2C)cc1N1CCNCC1.Cl"
recorded_endpoint = "Population Healthy Nuclei (%)"
unit = "%"
recorded_measurement = 16

[[record]]
compound = "CN(C)CCOc1ccc(-c2nc(-c3ccncc3)c(-c3ccc4c(c3)CC/C4=N\\O)[nH]2)cc1"
recorded_endpoint = "Population Healthy Nuclei (%)"
unit = "%"
recorded_measurement = 87

[[record]]
compound = "Nc1nc2c(c(N3CCNCC3)n1)CCC1=C2[C@@H]2CCCC[C@@H]2O1"
recorded_endpoint = "Population Healthy Nuclei (%)"
unit = "%"
recorded_measurement = 32

[[record]]
compound = "O=C(O)c1ccc2cc(-c3ccc(O)c(C45CC6CC(CC(C6)C4)C5)c3)ccc2c1"
recorded_endpoint = "Population Healthy Nuclei (%)"
unit = "%"
recorded_measurement = 43

[[record]]
compound = "CCc1cc2c(cc1CC)CC(NC[C@H](O)c1ccc(O)c3[nH]c(=O)ccc13)C2"
recorded_endpoint = "Population Healthy Nuclei (%)"
unit = "%"
recorded_measurement = 17

[[record]]
compound = "Cl.Cl.Nc1ncnc2c1c(-c1cccc(OCc3ccccc3)c1)cn2[C@H]1C[C@@H](CN2CCC2)C1"
recorded_endpoint = "Population Healthy Nuclei (%)"
unit = "%"
recorded_measurement = 6

[[record]]
compound = "CCCn1c(=O)c2[nH]c(C34CC5CC(CC3C5)C4)nc2n(CCC)c1=O"
recorded_endpoint = "Population Healthy Nuclei (%)"
unit = "%"
recorded_measurement = 24


* * *

# System: Fibroblast
# Assay Remarks: Multiplex assay against human fibroblast
# Format: toxicity, cell-based
# Measurement Parameters: 12 h, 10 µM, compound concentration 10 uM, replicate 1
Recorded Endpoint: Population Tubulin-Different-Phenotype (%)

[[record]]
smiles = "Cc1cc2c(cc1N1C(=O)c3cccc4c(CCCO)ccc(c34)C1=O)n(C)c(=O)n2C"
recorded_measurement = 72

[[record]]
smiles = "CNc1oc(-c2cccc3ccccc23)nc1C#N"
recorded_measurement = 0

[[record]]
smiles = "COc1ccc(NS(=O)(=O)c2sc3ccc(Cl)cc3c2C)cc1N1CCNCC1.Cl"
recorded_measurement = 88


* * *

Measured Population Pyknosed Nuclei (%), listed per entry.
# Test system: HEK-293T
# Assay Remarks: Multiplex assay against HEK293T
# Assay type: toxicity, cell-based
# Measurement Parameters: human, 48 h, 10 µM, compound concentration 10 uM, replicate 1
Recorded Endpoint: Population Pyknosed Nuclei (%)

[[record]]
compound = "Cc1cc2c(cc1N1C(=O)c3cccc4c(CCCO)ccc(c34)C1=O)n(C)c(=O)n2C"
recorded_measurement = "16%"

[[record]]
compound = "Nc1nc2c(c(N3CCNCC3)n1)CCC1=C2[C@@H]2CCCC[C@@H]2O1"
recorded_measurement = "39%"

[[record]]
compound = "CC(C)Oc1ccc(C(=O)N[C@H](CNC(=O)CN(C)C)Cc2ccc(-c3cn4cccc([C@H](C)O)c4n3)cc2)cc1Cl [GSK-923295A]"
recorded_measurement = "29%"

[[record]]
compound = "COc1cc2c(NC3CCN(C(C)C)CC3)nc(N3CCC(F)(F)CC3)nc2cc1OCCCN1CCCC1"
recorded_measurement = "70%"

[[record]]
compound = "COc1cc(N2CCC(N(C)C)CC2)ccc1Nc1ncc(Cl)c(Nc2ccccc2P(C)(C)=O)n1"
recorded_measurement = "47%"

